Protein target, amino acids: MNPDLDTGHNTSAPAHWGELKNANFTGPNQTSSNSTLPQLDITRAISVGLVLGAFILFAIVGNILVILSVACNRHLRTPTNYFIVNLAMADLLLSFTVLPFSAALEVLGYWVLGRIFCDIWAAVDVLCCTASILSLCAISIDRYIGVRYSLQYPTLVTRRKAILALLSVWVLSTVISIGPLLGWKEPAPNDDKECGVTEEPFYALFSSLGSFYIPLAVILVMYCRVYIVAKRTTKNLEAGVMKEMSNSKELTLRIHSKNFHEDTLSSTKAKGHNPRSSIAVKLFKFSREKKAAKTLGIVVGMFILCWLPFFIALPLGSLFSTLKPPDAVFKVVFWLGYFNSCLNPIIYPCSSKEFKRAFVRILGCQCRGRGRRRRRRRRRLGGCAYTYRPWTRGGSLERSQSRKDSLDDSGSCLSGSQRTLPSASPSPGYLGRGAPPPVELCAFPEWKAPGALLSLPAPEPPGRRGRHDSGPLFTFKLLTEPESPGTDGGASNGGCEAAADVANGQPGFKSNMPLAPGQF
Catalogue of log10 Ki values
Experimental Readout: log10 Ki (log10 of the value in nM)

>>> measured_number("CC(C)Oc1ccccc1N1CCN([C@H]2CC[C@H](NC(=O)Nc3ccc(F)c(F)c3)CC2)CC1")
1.87
>>> measured_number("COc1ccc(NC(=O)N[C@H]2CC[C@@H](N3CCN(c4ccccc4OC(C)C)CC3)CC2)cc1Cl")
2.69
>>> measured_number("CC(C)Oc1ccccc1N1CCN([C@H]2CC[C@@H](NC(=O)NCc3cccc(F)c3)CC2)CC1")
2.85
>>> measured_number("CC(C)Oc1ccccc1N1CCN([C@H]2CC[C@H](NC(=O)Nc3cc(F)ccc3F)CC2)CC1")
1.56
>>> measured_number("CC(C)Oc1ccccc1N1CCN([C@H]2CC[C@H](NC(=O)Nc3ccc(OC(F)(F)F)cc3)CC2)CC1")
2.11
>>> measured_number("CC(C)Oc1ccccc1N1CCN([C@H]2CC[C@@H](NC(=O)Nc3c(Cl)cc(Cl)cc3Cl)CC2)CC1")
2.68
>>> measured_number("COc1ccc(NC(=O)N[C@H]2CC[C@H](N3CCN(c4ccccc4OC(C)C)CC3)CC2)c(C)c1")
2.18
>>> measured_number("COc1ccccc1NC(=O)N[C@H]1CC[C@@H](N2CCN(c3ccccc3OC(C)C)CC2)CC1")
2.35
